Starred links: 1 amine or outer side, 2 acyl side, 3 side chain; linkers in the order of their positions; H or OH if unused. Non-standard residues stand in square brackets, D forms with d. Residues, ends and D or L forms follow the SMILES beside them. ξ: configuration not given here. *: point of attachment. Pheψ(R-CHOHCH2N)ξPro = O=C(C1CCCN1C[C@@H](O)[C@H](Cc1ccccc1)N[*:1])[*:2]; 2Nal = N[C@@H](Cc1ccc2ccccc2c1)C(=O)O; Boc = CC(C)(C)OC(=O)*
pKi, Human immunodeficiency virus type 1 protease (Human immunodeficiency virus 1), per-entry values.
Hey, just a heads up that pKi is the negative log base 10 of the concentration in molar.

>  <molecule>
CC[C@H](C)[C@H](NC(=O)C1CCCN1C[C@@H](O)[C@H](Cc1ccccc1)NC(=O)[C@H](CC(N)=O)NC(=O)OCc1ccccc1)C(=O)N[C@H](C(=O)OC)C(C)C (some centres not stated)

>  <pKi>
8.01

$$$$

# next molecule below
(Q) Tell us which pKi value is on record for CC[C@H](C)[C@H](NC(=O)C1CCCN1C[C@@H](O)[C@H](Cc1ccccc1)NC(=O)[C@H](CC(N)=O)NC(=O)[C@H](Cc1ccc2ccccc2c1)NC(=O)OC(C)(C)C)C(=O)N[C@H](C(=O)OC)C(C)C (some centres not stated) (Boc-[2Nal]N[Pheψ(R-CHOHCH2N)ξPro]IV-OMe)
(A) 8.11

====

system-name: Human immunodeficiency virus type 1 protease (Human immunodeficiency virus 1)
Starred links: 1 amine or outer side, 2 acyl side, 3 side chain; linkers in the order of their positions; H or OH if unused. Non-standard residues stand in square brackets, D forms with d. Residues, ends and D or L forms follow the SMILES beside them. ξ: configuration not given here. *: point of attachment. Pheψ(R-CH(OH)CH2N)Pro = O=C([C@@H]1CCCN1C[C@@H](O)[C@H](Cc1ccccc1)N[*:1])[*:2]; Pheψ(R-CHOHCH2N)ξPro = O=C(C1CCCN1C[C@@H](O)[C@H](Cc1ccccc1)N[*:1])[*:2]; 2Nal = N[C@@H](Cc1ccc2ccccc2c1)C(=O)O; Boc = CC(C)(C)OC(=O)*
# Lookup of reported pKi keyed by entry
Lab note — pKi values are minus log10 of concentrations in M.

>  <compound>
CC[C@H](C)[C@H](NC(=O)C1CCCN1C[C@@H](O)[C@H](Cc1ccccc1)NC(=O)[C@H](CC(N)=O)NC(=O)OCc1ccccc1)C(=O)N[C@@H](Cc1ccccc1)C(=O)NC (stereo partly drawn)

>  <pKi>
8.82

$$$$
>  <compound>
CC[C@H](C)[C@H](NC(=O)C1CCCN1C[C@@H](O)[C@H](Cc1ccccc1)NC(=O)[C@H](CC(N)=O)NC(=O)c1ccc2ccccc2n1)C(=O)N[C@@H](Cc1ccccc1)C(=O)NC (stereo partly drawn)

>  <pKi>
9.10

$$$$
>  <compound>
CC[C@H](C)[C@H](NC(=O)C1CCCN1C[C@@H](O)[C@H](Cc1ccccc1)NC(=O)[C@H](CC(N)=O)NC(=O)[C@H](CC(C)C)NC(=O)[C@H](CO)NC(C)=O)C(=O)N[C@@H](Cc1ccc2ccccc2c1)C(=O)OC (stereo partly drawn) (Ac-SLN[Pheψ(R-CHOHCH2N)ξPro]I[2Nal]-OMe)

>  <pKi>
8.29

$$$$
>  <compound>
CC[C@H](C)[C@H](NC(=O)C1CCCN1C[C@@H](O)[C@H](Cc1ccccc1)NC(=O)[C@H](CC(N)=O)NC(=O)[C@H](CC(C)C)NC(=O)[C@H](CO)NC(C)=O)C(=O)N[C@@H](Cc1ccccc1)C(=O)OC (stereo partly drawn) (Ac-SLN[Pheψ(R-CHOHCH2N)ξPro]IF-OMe)

>  <pKi>
9.17

$$$$
>  <compound>
CC[C@H](C)[C@H](NC(=O)C1CCCN1C[C@@H](O)[C@H](Cc1ccccc1)NC(=O)[C@H](CC(N)=O)NC(=O)[C@H](CC(C)C)NC(C)=O)C(=O)N[C@H](C(=O)OC)C(C)C (stereo partly drawn) (Ac-LN[Pheψ(R-CHOHCH2N)ξPro]IV-OMe)

>  <pKi>
8.40

$$$$

(Q) For the compound CC[C@H](C)[C@H](NC(=O)[C@@H]1CCCN1C[C@@H](O)[C@H](Cc1ccccc1)NC(=O)[C@H](CC(N)=O)NC(=O)[C@H](CC(C)C)NC(=O)[C@H](CO)NC(C)=O)C(=O)N[C@H](C(=O)OC)C(C)C (Ac-SLN[Pheψ(R-CH(OH)CH2N)Pro]IV-OMe) , report pKi.
(A) 9.62

(Q) Tell us which pKi value is on record for CC[C@H](C)[C@H](NC(=O)C1CCCN1C[C@@H](O)[C@H](Cc1ccccc1)NC(=O)[C@H](CC(N)=O)NC(=O)c1ccc2ccccc2n1)C(=O)N[C@@H](Cc1ccc2ccccc2c1)C(=O)OC (stereo partly drawn)
(A) 9.30

(Q) // Input: CC[C@H](C)[C@H](NC(=O)C1CCCN1C[C@@H](O)[C@H](Cc1ccccc1)NC(=O)[C@H](CC(N)=O)NC(=O)[C@H](CC(C)C)NC(=O)OC(C)(C)C)C(=O)N[C@H](C(=O)OC)C(C)C (stereo partly drawn) (Boc-LN[Pheψ(R-CHOHCH2N)ξPro]IV-OMe) . Output its pKi only.
(A) 7.18
